# Tested on: Huh-7
# measurement-protocol: Activation of glucose transporter in human Huh-7 cells assessed as increase in glucose uptake at 800 ug/ml preincubated for 30 mins followed by […] addition and measured after 45 mins by fluorescence assay
# Type: cell-based
# recorded-conditions: dose 800.0 µg/ml, time 75.0 min
Activity calls are given as the source filed them. The rule behind the calls is not given here.
measured-parameter: Activity

O=c1cc(-c2ccc(O)cc2)oc2c([C@@H]3O[C@H](CO)[C@@H](O)[C@H](O)[C@H]3O[C@@H]3O[C@H](CO)[C@@H](O)[C@@H]3O)c(O)cc(O)c12	inactive
O=C1OC[C@H]2O[C@@](CO)(O[C@H]3O[C@H](COC(=O)[C@H]4[C@H]1[C@@H](c1ccc(O)cc1)[C@@H]4c1ccc(O)cc1)[C@@H](O)[C@H](O)[C@H]3O)[C@@H](O)[C@@H]2O	inactive
O=c1cc(-c2ccc(O)cc2)oc2cc(O)c([C@@H]3O[C@H](CO)[C@@H](O)[C@H](O)[C@H]3O[C@@H]3O[C@H](CO)[C@@H](O)[C@H](O)[C@H]3O)c(O)c12	inactive

====

# Test system: Huh-7
# measurement-protocol: Activation of glucose transporter in human Huh-7 cells assessed as increase in glucose uptake at 800 ug/ml preincubated for 30 mins followed by […] addition and measured after 45 mins by fluorescence assay
# Assay type: cell-based
# recorded-conditions: dose 800.0 µg/ml, time 75.0 min
Active and inactive are the calls of the source. The rule behind the calls is not given here.
measured-parameter: Activity

O=c1cc(-c2ccc(O)c(O)c2)oc2c([C@@H]3O[C@H](CO)[C@@H](O)[C@H](O)[C@H]3O[C@@H]3O[C@H](CO)[C@@H](O)[C@@H]3O)c(O)cc(O)c12	inactive
CC(/C=C/C(=O)O)=C\C=C\C[C@H](O[C@@H]1O[C@H](CO)[C@@H](O)[C@H](O)[C@H]1O)[C@H](C)CC(=O)O	inactive
O=C(O)/C=C\c1ccc(O[C@@H]2O[C@H](CO)[C@@H](O)[C@H](O)[C@H]2O)cc1	inactive
